System: L1210 leukemia ip in BDF1 mice, survival T/C
procedure text: NCI In Vivo Anticancer Drug Screen. Data for tumor model L1210 Leukemia (intraperitoneal) in B6D2F1 (BDF1) mice
condition description: endpoint: mean survival time; dose: 100.0 mg/kg/injection; schedule: Q04DX003 (ip); vehicle: gum acacia; higher = longer survival
Inconclusive results and toxic doses are left out.
result type: T/C

smiles code	T/C
CCOC(=O)c1cnc(SCCN2C(=O)c3ccccc3C2=O)[nH]c1=O	100 % of control
Cc1ccc(C)c(NC(=O)Nc2ccccc2Cl)c1	93 % of control
Cc1ccc(NCc2ccccc2O)c(C)c1	94 % of control
O=C1c2cccc3cccc(c23)C(=O)N1CCCCCCCCCCN1C(=O)c2cccc3cccc(c23)C1=O	93 % of control

Lab note: next compound to report on.
Just so you know, measured T/C for COc1ccc(N(C)C(C)=S)cc1 came out at 96 % of control

---

Test system: L1210 leukemia ip in BDF1 mice, survival T/C
procedure text: NCI In Vivo Anticancer Drug Screen. Data for tumor model L1210 Leukemia (intraperitoneal) in B6D2F1 (BDF1) mice
condition description: endpoint: mean survival time; dose: 25.0 mg/kg/injection; schedule: Q01DX001 (ip); vehicle: Klucel (hydroxypropylcellulose) (HPC); higher = longer survival
Inconclusive results and toxic doses are left out.
Attribute: T/C

Solved entries:
smiles code	T/C
NC(=NCc1ccccc1)c1ncn(C2CCCC2)c1N	102 % of control
CC1(C)N=C(N)N=C(N)N1c1ccc(CCNC(=O)c2ccc(S(=O)(=O)F)cc2)cc1	90 % of control
CC[n+]1ccc(Nc2ccc(NC(=O)c3ccc(Nc4cc[n+](CC)c5ccc([N+](=O)[O-])cc45)cc3)cc2)cc1	102 % of control

We next turn to a different compound, shown below.
compound O=C(O)C(=O)c1c(O)n(-c2ccccc2)c2ccccc12 , T/C observed: 95 % of control

---

Tested on: L1210 leukemia ip in BDF1 mice, survival T/C
procedure text: NCI In Vivo Anticancer Drug Screen. Data for tumor model L1210 Leukemia (intraperitoneal) in B6D2F1 (BDF1) mice
condition description: endpoint: mean survival time; dose: 25.0 mg/kg/injection; schedule: Q04DX002 (ip); vehicle: saline with Tween-80; higher = longer survival
Inconclusive results and toxic doses are left out.
result type: T/C

Examples with their reported T/C follow.
smiles code	T/C
O=c1onc(-c2ccccc2)c2ccccc12	106 % of control
CC[N+](CC)(CC)CC(=O)c1ccc(Br)cc1	97 % of control
C[CH2][Hg][I]	95 % of control

Value of measured T/C for the entry O=C(CCl)OCCCl : 95 % of control

---

Test system: L1210 leukemia ip in BDF1 mice, survival T/C
procedure text: NCI In Vivo Anticancer Drug Screen. Data for tumor model L1210 Leukemia (intraperitoneal) in B6D2F1 (BDF1) mice
condition description: endpoint: mean survival time; dose: 75.0 mg/kg/injection; schedule: Q01DX009 (ip); vehicle: saline; higher = longer survival
Inconclusive results and toxic doses are left out.
This section presents compounds with their documented T/C values.

# annotated cases, reported T/C shown
compound	measurement target	T/C
C1CSC2(CCC(C3CCC4(CC3)SCCS4)CC2)S1 (centres undefined)	L1210 leukemia ip in BDF1 mice, survival T/C	92 % of control
CCN(CCCCO)CCc1c[nH]c2ccc(OC)cc12	L1210 leukemia ip in BDF1 mice, survival T/C	95 % of control
O=S(CCO)CCS(=O)CCO (centres undefined)	L1210 leukemia ip in BDF1 mice, survival T/C	95 % of control

Could you now look at the following compound, please?
# T/C (compound: CSc1nc(=O)[nH]nc1SCc1ccccc1 ) is 103 % of control
